target-or-system: hPAR2 (Homo sapiens, UniProt P55085)
Sequence (P55085 26-397): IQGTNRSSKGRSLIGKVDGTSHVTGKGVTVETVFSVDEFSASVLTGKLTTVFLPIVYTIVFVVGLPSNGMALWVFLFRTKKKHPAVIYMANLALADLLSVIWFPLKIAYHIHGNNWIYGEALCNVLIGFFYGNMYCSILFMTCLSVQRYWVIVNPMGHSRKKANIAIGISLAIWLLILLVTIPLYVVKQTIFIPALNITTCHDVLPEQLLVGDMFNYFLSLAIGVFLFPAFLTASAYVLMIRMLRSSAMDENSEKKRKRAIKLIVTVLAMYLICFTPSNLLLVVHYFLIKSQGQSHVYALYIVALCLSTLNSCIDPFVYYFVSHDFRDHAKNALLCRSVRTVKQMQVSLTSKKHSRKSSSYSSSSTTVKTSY
measurement-description: Schild and allosteric model analysis of Ca^2+ mobilisation in CHO-hPAR2 cells (2f-LIGRL-NH2 or trypsin)
Type: cell-based
Protocol: Cells were loaded with Fluo-8 NW calcium dye (AAT Bioquest) for 30 min at 37 °C before compounds in Hank’s balanced salt solution (HBSS, ThermoFisher Scientific) with 20 mM HEPES (ThermoFisher Scientific), 0.1% bovine serum albumin (BSA, Sigma) and 0.5% DMSO were added and simultaneously evaluated for changes in intracellular [Ca^2+] using FLIPR TETRA (Molecular Devices) to detect agonism. […]
pEC50: −log10 of the molar value.
result-type: pEC50

compound: CC[C@H](C)[C@H](NC(=O)[C@H](CC(C)C)NC(=O)c1ccco1)C(=O)NCC(=O)N[C@@H](CCCNC(=N)N)C(=O)N[C@@H](CC(C)C)C(N)=O [2f-LIGRL-NH2, reference compound]
target-or-system: hPAR2 (Homo sapiens, UniProt P55085)
result-type: pEC50
reported-measurement: 6.60

====

target-or-system: hPAR2 (Homo sapiens, UniProt P55085)
measurement-description: Radiolabelled competition binding assay against [^3H]-GB110 on HEKexpi293F membranes
Parameters: expressed in transfected cells
measurement-context: [3H]-GB110; earlier manuscript version quoted by reviewer; read-out: Ki

smiles-notation: CNC(=O)[C@H]1CC[C@@H](NC(=O)[C@H](CC2CCCCC2)NC(=O)c2cn(Cc3ccccc3)nn2)c2ccccc21
Ki / nM: 63

====

target-or-system: PAR2 (F2RL1) (Homo sapiens, UniProt P55085)
Sequence (P55085 26-397): as above
measurement-description: β-arrestin recruitment, DiscoverX profiling service, PAR2
measurement-context: Agonist format, read-out: RC50 (EC50)
result-type: EC50

compound: CNC(=O)[C@H]1CC[C@@H](NC(=O)[C@H](CC2CCCCC2)NC(=O)c2cn(Cc3ccccc3)nn2)c2ccccc21 [AZ2429]
result-type: EC50
reported-measurement: 25 nM
